- target-under-test: hα7-wt nAChR (Homo sapiens, UniProt P36544)
- Sequence (P36544 23-502): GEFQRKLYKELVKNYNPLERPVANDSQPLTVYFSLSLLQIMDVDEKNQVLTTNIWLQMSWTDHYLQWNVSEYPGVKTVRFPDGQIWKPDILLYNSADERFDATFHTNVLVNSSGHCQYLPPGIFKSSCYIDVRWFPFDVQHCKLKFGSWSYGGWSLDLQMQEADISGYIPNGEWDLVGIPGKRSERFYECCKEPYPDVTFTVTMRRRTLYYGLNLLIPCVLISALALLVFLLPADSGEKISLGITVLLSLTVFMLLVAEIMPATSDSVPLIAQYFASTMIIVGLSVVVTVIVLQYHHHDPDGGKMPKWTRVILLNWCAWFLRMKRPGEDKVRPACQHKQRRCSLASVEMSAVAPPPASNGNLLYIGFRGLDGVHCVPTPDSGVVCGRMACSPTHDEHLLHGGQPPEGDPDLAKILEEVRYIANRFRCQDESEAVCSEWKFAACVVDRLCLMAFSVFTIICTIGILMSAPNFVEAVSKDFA
- assay-method-text: Ca2+ flux imaging (FDSS) (Protocol B), potentiation of the choline response
- test-conditions: Ca2+ assay as described in D.1; "<5" = activity did not reach a top plateau at maximal concentration
attribute-measured: pEC50
In textbook form, pEC50 equals minus log to base ten of the concentration in mol/L.

Look over these answered cases.
Given the compound Cc1cc(-c2cc(Nc3cccc(Cl)c3F)nn2CC(=O)NC2CCC2)cc(C)n1 [compound 175] , write its reported pEC50.
6.90

In one line, give reported pEC50 of the entry CC[C@H](O)Cn1nc(Nc2ccc(F)c(F)c2)cc1-c1ccnc(COC)c1 [compound 6] .
5.94

Indicate the recorded pEC50 value for this compound: COc1cc(Nc2cc(-c3ccnc(C)c3)n(CCC(=O)N(C)C)n2)cc(C(F)(F)F)c1 [compound 143]
6.24

Identify measured pEC50 corresponding to CC[C@H](O)Cn1nc(Nc2ccc(F)c(F)c2)cc1-c1ccnc(C)c1 [compound 45]
5.91

Identify measured pEC50 corresponding to COCc1cc(-c2cc(Nc3ccc(F)c(F)c3)nn2CCC(=O)N(C)C)ccn1 [compound 70]
5.87

Note down pEC50 recorded for CN(C)C(=O)CCn1nc(Nc2ccc(F)c(F)c2)cc1-c1ccncc1 [compound 21]
5.91

Here is another compound to look at.
Write down pEC50 measured for item CC[C@H](O)Cn1nc(Nc2ccc(F)c(F)c2)cc1-c1cc(C)nc(C)c1 [compound 59]
6.21
